# measured.on: Human LDHA (Homo sapiens (Human), UniProt P00338)
# protocol.description: human LDHA primary biochemical assay (resazurin/diaphorase coupled, fluorescence)
# recorded.conditions: LDHA inhibitory activity, assay of Example 1; activity level classes
readout.kind: IC50

Cc1ccc(-c2cc(-c3nn(-c4nc(C(=O)O)cs4)c(C4CC4)c3Cc3ccc(S(N)(=O)=O)c(F)c3)ccc2F)cc1 [Compound 249] : < 0.1 µM

**Q:** Indicate its recorded IC50; the compound in question is O=C(O)c1csc(-n2nc(-c3cccc(N4CCOCC4)c3)cc2O)n1 [Compound 93]
**A:** > 57 µM

**Q:** Indicate its recorded IC50; the compound in question is COc1cccc(-c2cc(-c3nn(-c4nc(C(=O)O)cs4)c(CC4CC4)c3Cc3ccc(S(N)(=O)=O)c(F)c3)ccc2F)c1 [Compound 330]
**A:** < 0.1 µM

**Q:** Indicate its recorded IC50; the compound in question is NS(=O)(=O)c1ccc(Cc2c(-c3cccc(N4CCOCC4)c3)nn(-c3ncc(C(=O)O)s3)c2CC2CC2)cc1F [Compound 267]
**A:** < 0.1 µM

**Q:** Indicate its recorded IC50; the compound in question is CCOC(=O)c1csc(-n2nc(-c3cccc(OC4CCCC4)c3)c(Cc3ccc(S(N)(=O)=O)cc3F)c2CC2CC2)n1 [Compound 335]
**A:** 1 to 57 µM

**Q:** Indicate its recorded IC50; the compound in question is NS(=O)(=O)c1ccc(Cc2c(-c3ccc(F)c(-c4cccc(F)c4)c3)nn(-c3nc(C(=O)O)cs3)c2C2CC2)cc1F [Compound 251]
**A:** < 0.1 µM

**Q:** Indicate its recorded IC50; the compound in question is CCOC(=O)c1csc(-n2nc(-c3cccc(-c4ccccc4)c3)c(Cc3ccc(S(N)(=O)=O)cc3)c2C2CC2)n1 [Compound 181]
**A:** > 57 µM

---

Overview of reported pIC50 across a group of compounds:
# measured.on: Human LDHA (Homo sapiens (Human))
# protocol.description: human LDHA primary biochemical assay (resazurin/diaphorase coupled, fluorescence)
# recorded.conditions: LDHA inhibitory activity, assay of Example 1; activity level classes
pIC50: −log10 of the molar value.

Example results:
O=C(O)c1csc(-n2nc(-c3cccc(F)c3F)cc2O)n1 : < 4.24
NS(=O)(=O)c1ccc(Cc2c(-c3ccc(F)c(C#CCN4CCOCC4)c3)nn(-c3nc(C(=O)O)cs3)c2CC2CC2)cc1F : > 7.00
NS(=O)(=O)c1ccc(Cc2c(-c3cccc4ccccc34)nn(-c3nc(C(=O)O)cs3)c2O)cc1 : 4.24 to 6.00
N[S+](=O)([O-])c1ccc(Cc2c(-c3ccc(F)c(-c4cccc(F)c4)c3)nn(-c3nc(C(=O)O)cs3)c2CC2CC2)c(F)c1 : > 7.00
CN(C)C(=O)Oc1cc(-c2ccc(F)c(F)c2)nn1-c1nc(C(=O)Oc2ccc3c(c2)CCC3)cs1 : < 4.24
CCOC(=O)c1csc(-n2nc(-c3ccc(F)c(-c4cccc(OC)c4)c3)c(Cc3ccc(S(N)(=O)=O)cc3F)c2CC2CC2)n1 : < 4.24

Consider the record given below.
**Q:** Indicate its recorded pIC50; the compound in question is `Nc1c(Cc2ccc(S(N)(=O)=O)cc2)c(-c2ccc(F)c(F)c2)nn1-c1nc(C(=O)O)cs1`
**A:** > 7.00
